assay.remarks: activity coefficient (dimensionless); of the first substance listed, at infinite dilution; xn = mol fraction of the nth substance listed
assay.setup: 348.15 K; 101 kPa; Liquid; Chromatography; x1 = 0
experimental.endpoint: activity coefficient
Number, no unit, nothing else.

Field activity coefficient (entry CCOCC [diethyl ether] + CCCCCCOCn1cc[n+](COCCCCCC)c1.O=S(=O)([N-]S(=O)(=O)C(F)(F)F)C(F)(F)F ) reads 0.879

Field activity coefficient (entry CCCCCC [hexane] + CCCCCCOCn1cc[n+](COCCCCCC)c1.O=S(=O)([N-]S(=O)(=O)C(F)(F)F)C(F)(F)F ) reads 2.83

Field activity coefficient (entry C=CCCC [1-pentene] + CCCCCCOCn1cc[n+](COCCCCCC)c1.O=S(=O)([N-]S(=O)(=O)C(F)(F)F)C(F)(F)F ) reads 1.75

Field activity coefficient (entry c1ccsc1 [thiophene] + CCCCCCOCn1cc[n+](C)c1.O=S(=O)([N-]S(=O)(=O)C(F)(F)F)C(F)(F)F ) reads 0.746

Field activity coefficient (entry CCCCCCC [heptane] + CCCCCCOCn1cc[n+](C)c1.O=S(=O)([N-]S(=O)(=O)C(F)(F)F)C(F)(F)F ) reads 8.28

Field activity coefficient (entry C1CCCCCC1 [cycloheptane] + CCCCCCOCn1cc[n+](COCCCCCC)c1.O=S(=O)([N-]S(=O)(=O)C(F)(F)F)C(F)(F)F ) reads 2.25

Field activity coefficient (entry CCCCCCCCC [nonane] + CCCCCCOCn1cc[n+](COCCCCCC)c1.O=S(=O)([N-]S(=O)(=O)C(F)(F)F)C(F)(F)F ) reads 4.84

Field activity coefficient (entry COC(C)(C)C [2-methoxy-2-methylpropane] + CCCCCCOCn1cc[n+](C)c1.O=S(=O)([N-]S(=O)(=O)C(F)(F)F)C(F)(F)F ) reads 1.41

Field activity coefficient (entry CCCCCCC [heptane] + CCCCCCOCn1cc[n+](COCCCCCC)c1.O=S(=O)([N-]S(=O)(=O)C(F)(F)F)C(F)(F)F ) reads 3.36

Field activity coefficient (entry Cc1ccc(C)cc1 [1,4-dimethylbenzene] + CCCCCCOCn1cc[n+](COCCCCCC)c1.O=S(=O)([N-]S(=O)(=O)C(F)(F)F)C(F)(F)F ) reads 0.958

Field activity coefficient (entry C#CCCCCC [1-heptyne] + CCCCCCOCn1cc[n+](C)c1.O=S(=O)([N-]S(=O)(=O)C(F)(F)F)C(F)(F)F ) reads 2.48

Field activity coefficient (entry CO [methanol] + CCCCCCOCn1cc[n+](C)c1.O=S(=O)([N-]S(=O)(=O)C(F)(F)F)C(F)(F)F ) reads 0.894

Field activity coefficient (entry CCCCCCCCCC [decane] + CCCCCCOCn1cc[n+](C)c1.O=S(=O)([N-]S(=O)(=O)C(F)(F)F)C(F)(F)F ) reads 16.7

Field activity coefficient (entry CCCO [propan-1-ol] + CCCCCCOCn1cc[n+](COCCCCCC)c1.O=S(=O)([N-]S(=O)(=O)C(F)(F)F)C(F)(F)F ) reads 0.861

Field activity coefficient (entry CCO [ethanol] + CCCCCCOCn1cc[n+](COCCCCCC)c1.O=S(=O)([N-]S(=O)(=O)C(F)(F)F)C(F)(F)F ) reads 0.824
